target: T1, GST-PSD95 fusion protein (PDZ domains 1-3) (human, UniProt P31016 56-395 (rat entry)); test: A/G assays
T1 construct: also called human post-synaptic density protein 95; not shown: glutathione S-transferase encoded by vector pGEX-3X (Pharmacia)
T1 sequence (P31016 other isoform, or with tags, fused parts or gaps): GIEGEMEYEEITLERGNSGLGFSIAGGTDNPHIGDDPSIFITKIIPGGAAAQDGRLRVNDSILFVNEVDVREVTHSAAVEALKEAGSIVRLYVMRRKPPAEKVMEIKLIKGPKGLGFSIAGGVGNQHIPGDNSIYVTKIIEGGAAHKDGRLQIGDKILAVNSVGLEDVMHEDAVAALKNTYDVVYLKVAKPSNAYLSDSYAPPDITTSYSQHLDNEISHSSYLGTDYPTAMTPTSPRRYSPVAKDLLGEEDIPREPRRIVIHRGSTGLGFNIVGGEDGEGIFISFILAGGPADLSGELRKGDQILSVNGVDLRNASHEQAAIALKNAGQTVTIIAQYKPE
Ends that are not written are not given here. * marks the point of attachment. Biotin = O=C1N[C@H]2[C@H](CS[C@H]2CCCCC(=O)*)N1

BINDER | binding result
Biotin-SSGGRARHSYHHPDQDHWC (Marked (S), sticky peptide with high background; also called V-gated Ca2+ channel (S)) [V-gated Ca2+ channel C-terminal peptide AA46L] | no binding
Biotin-HKAEIHAQPSDKERLTSDA (also called CD49F (Aform, alpha6)) [CD49F C-terminal peptide AA12L, biotinylated] | no binding
Biotin-GTSDMKDLVGNIEQNEHSVI (Only the last four residues are seen in the excerpts) [Mannose receptor C-terminal peptide AA31L] | no binding

Where these numbers come from: patent US20050037969A1
